# Tested on: Key Grass and Sedge Weeds as well as Grass Crops
# Experiment Description: Post-Emergent Test II: postemergent herbicidal activity, visual rating after 14 d (Table 8)
# Format: in vivo
# Reported Conditions: post-emergence, 336 h, maize, corn (Zea mays), 140 g ai/ha, read-out: Visual Growth Reduction (%) 14 Days After Application ZEAMX
Parameter Measured: pest or weed control at 140 g/ha

Recorded pest or weed control at 140 g/ha (molecule Nc1nc(-c2ccc3c(c2F)OC(F)(F)O3)nc(C(=O)O)c1Cl [Compound 59] ): 60 to 74%

// pest or weed control at 140 g/ha lookup, molecule = COC(=O)c1nc(-c2cc3c(cc2F)OCO3)c(F)c(N)c1Cl [Compound 16] , result: 75 to 84%

get_value(item= Nc1cc(-c2cc(F)c3c(c2)OC(F)(F)O3)nc(C(=O)O)c1Cl [Compound 44] , readout=pest or weed control at 140 g/ha) returns 0 to 29%

// recorded pest or weed control at 140 g/ha for COC(=O)c1nc(-c2ccc3c(c2)OC(F)(F)O3)c(F)c(N)c1OC [Compound 24] : 75 to 84%

---

# Test system: Key Grass and Sedge Weeds as well as Grass Crops
# Experiment Description: Post-Emergent Test II: postemergent herbicidal activity, visual rating after 14 d (Table 8)
# Format: in vivo
# Reported Conditions: post-emergence, 336 h, barnyardgrass (Echinochloa crus-galli), 140 g ai/ha, read-out: Visual Growth Reduction (%) 14 Days After Application, ECHCG
Give measured pest or weed control at 140 g/ha for each item. Keep answers brief.

The reported pest or weed control at 140 g/ha of the compound Nc1c(F)c(-c2ccc3c(c2)OCC3)nc(C(=O)O)c1Cl [Compound 101] was 75 to 84%

pest or weed control at 140 g/ha reading for COC(=O)c1nc(-c2ccc3c(c2)SCO3)c(F)c(N)c1Cl [Compound 105] : 75 to 84%

For COC(=O)c1nc(-c2cccc3c2OCO3)cc(N)c1Cl [Compound 93] the compound record lists pest or weed control at 140 g/ha as 0 to 29%

Form field pest or weed control at 140 g/ha, entry COC(=O)c1nc(-c2ccc3c(c2F)OC(F)(F)C3(F)F)cc(N)c1Cl [Compound 106] : 0 to 29%

Entry COC(=O)c1nc(-c2ccc(F)c3c2OCO3)nc(N)c1OC [Compound 97] ; pest or weed control at 140 g/ha = 0 to 29%

Measured pest or weed control at 140 g/ha, COC(=O)c1nc(-c2cccc3c2OC(F)(F)O3)cc(N)c1Cl [Compound 84] : 0 to 29%

Per the record, CN1CCc2cc(-c3nc(C(=O)O)c(Cl)c(N)c3F)ccc21 [Compound 108] has pest or weed control at 140 g/ha of 75 to 84%

The measured pest or weed control at 140 g/ha associated with COC(=O)c1nc(-c2ccc(Cl)c3c2OC(F)(F)O3)nc(N)c1OC [Compound 95] reads 0 to 29%

Quick note, pest or weed control at 140 g/ha for Nc1cc(-c2ccc(F)c3c2OC(F)(F)O3)nc(C(=O)O)c1Cl [Compound 89] landed at 0 to 29%

# pest or weed control at 140 g/ha (compound: Nc1cc(-c2ccc(Cl)c3c2OC(F)(F)O3)nc(C(=O)O)c1Cl [Compound 87] ) is 0 to 29%

compound COC(=O)c1nc(-c2cccc3c2OC(F)(F)O3)nc(N)c1OC [Compound 99] , pest or weed control at 140 g/ha observed: 0 to 29%

For reference, reported pest or weed control at 140 g/ha for COC(=O)c1nc(-c2ccc(F)c3c2OCO3)c(F)c(N)c1Cl [Compound 83] stands at 0 to 29%

---

# Tested on: Key Grass and Sedge Weeds as well as Grass Crops
# Experiment Description: Post-Emergent Test II: postemergent herbicidal activity, visual rating after 14 d (Table 8)
# Format: in vivo
# Reported Conditions: post-emergence, 336 h, barnyardgrass (Echinochloa crus-galli), 70 g ai/ha, read-out: Visual Growth Reduction (%) 14 Days After Application ECHCG
Consider the following compounds; for each one, report its pest or weed control at 70 g/ha.

Form field pest or weed control at 70 g/ha, entry COC(=O)c1nc(-c2cc3c(cc2F)OC(F)(F)O3)c(F)c(N)c1F [Compound 21] : 0 to 29%

The compound Nc1nc(-c2ccc3c(c2)OC(F)(F)O3)nc(C(=O)O)c1Cl [Compound 61] showed pest or weed control at 70 g/ha equal to 85 to 94%

Entry under test: COC(=O)c1nc(-c2ccc3c(c2)OC(C)(C)O3)nc(N)c1OC [Compound 67] . Its pest or weed control at 70 g/ha was 45 to 59%

The measured pest or weed control at 70 g/ha associated with COC(=O)c1nc(-c2ccc3c(c2)OC(F)(F)O3)c(C)c(N)c1Cl [Compound 49] reads 0 to 29%

Short answer for Cc1c(-c2ccc3c(c2)OC(F)(F)O3)nc(C(=O)O)c(Cl)c1N [Compound 52] : pest or weed control at 70 g/ha was 60 to 74%

Consider Nc1nc(-c2cc3c(cc2F)OC(F)(F)O3)nc(C(=O)O)c1Cl [Compound 57] . Its measured pest or weed control at 70 g/ha is 95 to 100%

Lab note: COC(=O)c1nc(-c2ccc3c(c2)OC(F)(F)O3)c(F)c(N)c1OC [Compound 24] gave pest or weed control at 70 g/ha of 85 to 94%

Notebook: COC(=O)c1nc(-c2ccc3c(c2)OC(F)(F)O3)nc(N)c1Cl [Compound 60] , pest or weed control at 70 g/ha read as 75 to 84%

Recorded pest or weed control at 70 g/ha (compound COc1c(N)nc(-c2ccc3c(c2F)OC(F)(F)O3)nc1C(=O)O [Compound 66] ): 95 to 100%

---

# Test system: Key Grass and Sedge Weeds as well as Grass Crops
# Experiment Description: Post-Emergent Test II: postemergent herbicidal activity, visual rating after 14 d (Table 8)
# Format: in vivo
# Reported Conditions: post-emergence, 336 h, giant foxtail (Setaria faberi), 35 g ai/ha, read-out: Visual Growth Reduction (%) 14 Days After Application SETFA
Consider the following compounds; for each one, report its pest or weed control at 35 g/ha.

// field: pest or weed control at 35 g/ha; key: COC(=O)c1nc(-c2ccc3c(c2)OC(F)(F)O3)nc(N)c1OC ; value = 0 to 29%

Form: compound = Nc1c(F)c(-c2ccc(F)c3c2OC(F)(F)O3)nc(C(=O)O)c1Cl ; pest or weed control at 35 g/ha = 0 to 29%

Reported pest or weed control at 35 g/ha for C=Cc1c(C(=O)O)nc(-c2ccc3c(c2)OC(F)(F)O3)c(F)c1N was 0 to 29%

pest or weed control at 35 g/ha recorded for this compound, COC(=O)c1nc(-c2cc3c(cc2F)OC(F)(F)O3)c(F)c(N)c1Cl , is 45 to 59%

Please fill in: pest or weed control at 35 g/ha reported for COc1c(N)nc(-c2cc3c(cc2F)OC(F)(F)O3)nc1C(=O)O = 60 to 74%

Given item COC(=O)c1nc(-c2c(F)cc3c(c2F)OC(F)(F)O3)cc(N)c1Cl , the value recorded as its pest or weed control at 35 g/ha is 0 to 29%

// pest or weed control at 35 g/ha lookup, compound = COC(=O)c1nc(-c2cc3c(cc2F)OCO3)c(F)c(N)c1Cl , result: 60 to 74%

The reported value for COC(=O)c1nc(-c2ccc3c(c2)OC(F)(F)O3)nc(N)c1Cl in terms of pest or weed control at 35 g/ha is 30 to 44%

---

# Test system: Key Grass and Sedge Weeds as well as Grass Crops
# Experiment Description: Post-Emergent Test II: postemergent herbicidal activity, visual rating after 14 d (Table 8)
# Assay type: in vivo
# Reported Conditions: post-emergence, 336 h, maize, corn (Zea mays), 35 g ai/ha, read-out: Visual Growth Reduction (%) 14 Days After Application ZEAMX
Parameter Measured: pest or weed control at 35 g/ha

Summary for this molecule, COC(=O)c1nc(-c2c(F)cc3c(c2F)OCO3)cc(N)c1Cl [Compound 48] : pest or weed control at 35 g/ha is 30 to 44%

Memo: COC(=O)c1nc(-c2cccc3c2OC(F)(F)O3)c(F)c(N)c1Cl [Compound 73] , reported pest or weed control at 35 g/ha: 0 to 29%

Recorded pest or weed control at 35 g/ha (molecule Cc1c(-c2ccc3c(c2)OC(F)(F)O3)nc(C(=O)O)c(Cl)c1N [Compound 52] ): 60 to 74%

The molecule identified as COC(=O)c1nc(-c2ccc3c(c2F)OC(F)(F)O3)c(F)c(N)c1Cl [Compound 10] registered its pest or weed control at 35 g/ha at 60 to 74%

# pest or weed control at 35 g/ha (molecule: Nc1cc(-c2cc(F)c3c(c2)OC(F)(F)O3)nc(C(=O)O)c1Cl [Compound 44] ) is 0 to 29%

pest or weed control at 35 g/ha reading for COC(=O)c1nc(-c2ccc3c(c2)OC(F)(F)O3)nc(N)c1OC [Compound 62] : 95 to 100%

Noted for COC(=O)c1nc(-c2cc3c(cc2OC)OC(F)(F)O3)cc(N)c1Cl [Compound 38] : its pest or weed control at 35 g/ha reads 0 to 29%
